system: RARb:RXRa (NR concentration 270 nM, RXRa partner concentration 90 nM); experiment: PBM binding z-score (relative to random genomic background probes); higher = stronger binding; sequences stand for … in GC…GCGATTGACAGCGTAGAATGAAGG
Measured Endpoint: PBM binding z-score
Answers are plain numbers.

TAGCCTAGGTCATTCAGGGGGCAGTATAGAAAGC : 4.45

Dear colleague, could you please provide PBM binding z-score for the sequences listed below?
1. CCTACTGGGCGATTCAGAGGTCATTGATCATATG
2. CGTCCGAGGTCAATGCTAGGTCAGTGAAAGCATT
3. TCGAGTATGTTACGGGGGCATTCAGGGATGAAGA
4. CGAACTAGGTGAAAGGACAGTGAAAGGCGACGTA
5. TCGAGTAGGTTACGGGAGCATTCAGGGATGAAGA

[2.53, 5.17, 2.01, 1.54, 0.692]

Item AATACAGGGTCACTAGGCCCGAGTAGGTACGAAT has what recorded PBM binding z-score?
4.14

Each recorded value in this set is attributed to the supplement of paper PMC6555819.
